Origin of values: the supplement of paper PMC10201428

system: VchCAST RNA-guided transposition machinery (E. coli BL21(DE3) host, lacZ target); experiment: relative integration efficiency (T-RL orientation) vs wild-type transposon end (log2 (normalized fold change)); transposon end mutated: right end (5 bp flank + 75 bp right end); higher = more efficient transposition
Short version: relative integration efficiency (log2) at least -1 is true, less is false.

As a guide, the following entries are already answered.
seq_string	experimental_system	label_value
ACATTTGTTGATACAACCATAAAATCATAATTACACCCATCAATTGATAATTATCACACCCCATTTAACTATAACGCTCTGATCATAGTCAGACCAACATTGCTACGACCCGTATTCGCACCGACAC	VchCAST RNA-guided transposition machinery (E. coli BL21(DE3) host, lacZ target)	false
ACATTTGTTGATACAACCATAAAATGATAATTAGTCCCATAAATTGATAATTATCACACCCATAAATTGATATTGCCTCTGATCATAGTCAGACCAACATTGCTACGACCCGTATTCGCACCGACAC	VchCAST RNA-guided transposition machinery (E. coli BL21(DE3) host, lacZ target)	true
ACATTTGTTGATACAACCATAAGTTGATATTTTCAACCATATATTGATATCTCTCAGTGGGTATTTAACTATAACGCTCTGATCATAGTCAGACCAACATTGCTACGACCCGTATTCGCACCGACAC	VchCAST RNA-guided transposition machinery (E. coli BL21(DE3) host, lacZ target)	false
ACATTTGTTGATACAACCATAAAATGATAATTACACCCATCCATTGATAATTATCACACCCATAAATTGATATTGCCTCTGATCATAGTCAGACCAACATTGCTACGACCCGTATTCGCACCGACAC	VchCAST RNA-guided transposition machinery (E. coli BL21(DE3) host, lacZ target)	false

Shifting focus to the sequence that follows.
**Q:** Can "ACATTTGTTGATACAACCATATATTGATATCTCCAACCATATATTGATATCTCTCACAACCATAAAATGATAATTACTCTGATCATAGTCAGACCAACATTGCTACGACCCGTATTCGCACCGACAC" be said to have relative integration efficiency (log2) at or above -1?
**A:** true

====

Each record here notes measured relative integration efficiency (log2).
test system: VchCAST RNA-guided transposition machinery (E. coli BL21(DE3) host, lacZ target); experiment: relative integration efficiency (T-RL orientation) vs wild-type transposon end (log2 (normalized fold change)); transposon end mutated: right end (5 bp flank + 75 bp right end); higher = more efficient transposition
Form: value (number only, do not type unit).

Example entries and their recorded answers appear below.
seq_string	measurement_kind	meas_value
ACATTTGTTGATACACCCATAAATTGATATTGCCAACCATATATTGATATCTCTCACACCCATAAATTGATATTGCCTCTGATCATAGTCAGACCAACATTGCTACGACCCGTATTCGCACCGACAC	relative integration efficiency (log2)	-1.11
ACATTTGTTGATACAACCATAAAATGATAATTACACCCATAAATTGAGCATTATCACACCCATAAATTGATATTGCCTCTGATCATAGTCAGACCAACATTGCTACGACCCGTATTCGCACCGACAC	relative integration efficiency (log2)	-0.525

Consider the record given below.
**Q:** Request: relative integration efficiency (log2), test system VchCAST RNA-guided transposition machinery (E. coli BL21(DE3) host, lacZ target), entry "ACATTTGTTGATACACCCATAAATTGATAATTACAACCATAAAGTGATATTTATCACAACCATAAAGTGATATTTACTCTGATCATAGTCAGACCAACATTGCTACGACCCGTATTCGCACCGACAC"
**A:** -0.483
